# Tested on: MDA-MB-468 breast
# protocol.description: NCI tumour cell line growth inhibition, 48 h
recorded.metric: TGI (µM)
Return type: number; implicit unit µM.

>>> readout_value("COc1cc(/C=C/C(=O)/C=C/c2cc3ccc(Cl)cc3n(Cc3ccccc3)c2=O)ccc1O")
5.2
>>> readout_value("COc1ccc(Cn2cc3c(c2)-c2oncc2CC3)cc1OC")
0.254

Memo: `CCOC(=O)/C(C#N)=C1\SS/C(=C(/C#N)C(=O)OCC)S1` , reported TGI: 33

Memo: `O=C(Nc1ccc(-n2ccc3c(NC(=O)c4ccccc4)nccc32)cc1)Nc1cccc(C(F)(F)F)c1` , reported TGI: 10.5

Memo: `Cc1ccc(Cl)cc1NC(=O)c1cc2ccccc2cc1O` , reported TGI: 7.25
